The measurements presented in this section are drawn from paper PMC10897476.

System: K. pneumoniae AcrB^V448E RamR^mut
Experiment: MIC of antibiotics with and without EPI (REMA), double mutant
Assay type: cell-based, Klebsiella pneumoniae
Settings: K. pneumoniae AcrB^V448E RamR^mut; + 100 µM 1'
# label = true if Minimum Inhibitory Concentration < 100 mg/L else false

[Q] Given CN(C)[C@@H]1C(O)=C(C(N)=O)C(=O)[C@@]2(O)C(O)=C3C(=O)c4c(O)cccc4[C@@](C)(O)[C@H]3C[C@@H]12 , is recorded Minimum Inhibitory Concentration strictly lower than 100 mg/L?
[A] true

[Q] Can you handle CO[C@@H]1[C@@H](OC(N)=O)[C@@H](O)[C@H](Oc2ccc3c(O)c(NC(=O)c4ccc(O)c(CC=C(C)C)c4)c(=O)oc3c2C)OC1(C)C next?
[A] false

[Q] Also need CO/N=C(\C(=O)N[C@@H]1C(=O)N2C(C(=O)[O-])=C(C[N+]3(C)CCCC3)CS[C@H]12)c1csc(N)n1 [Cefepime] , thanks.
[A] true

[Q] For CC(=O)O[C@H]1C[C@@]2(C)[C@@H](C[C@@H](O)[C@H]3[C@@]4(C)CC[C@@H](O)[C@@H](C)[C@@H]4CC[C@@]32C)/C1=C(\CCC=C(C)C)C(=O)O then?
[A] false

[Q] Also CC(=O)NC[C@H]1CN(c2ccc(N3CCOCC3)c(F)c2)C(=O)O1 ?
[A] false

[Q] Moving on to the next compound: CC(C)(O/N=C(\C(=O)N[C@@H]1C(=O)N2C(C(=O)[O-])=C(C[n+]3ccccc3)CS[C@H]12)c1csc(N)n1)C(=O)O
[A] true

[Q] # repeat for C[C@H]1COc2c(N3CCN(C)CC3)c(F)cc3c(=O)c(C(=O)O)cn1c23
[A] true

[Q] What do we get for C[C@@H](O)[C@H]1C(=O)N2C(C(=O)O)=C(S[C@@H]3CN[C@H](C(=O)N(C)C)C3)[C@H](C)[C@H]12 ?
[A] true

* * *

Test system: K. pneumoniae AcrB^V448E
Assay: MIC of antibiotics with and without EPI (REMA), AcrB V448E mutant
Format: cell-based, Klebsiella pneumoniae
Conditions: K. pneumoniae AcrB^V448E; + 100 µM PAβN
Marks after values point to notes of the source that are not given here.
Assay endpoint: Minimum Inhibitory Concentration

[Q] Can you look up the measured Minimum Inhibitory Concentration of O=C(N[C@H](CO)[C@H](O)c1ccc([N+](=O)[O-])cc1)C(Cl)Cl for me?
[A] 2.0^# mg/L

[Q] Proceed to C[C@H]1COc2c(N3CCN(C)CC3)c(F)cc3c(=O)c(C(=O)O)cn1c23
[A] 0.02^# mg/L

[Q] Another molecule to check: CO/N=C(\C(=O)N[C@@H]1C(=O)N2C(C(=O)[O-])=C(C[N+]3(C)CCCC3)CS[C@H]12)c1csc(N)n1 [Cefepime]
[A] 0.64 mg/L

[Q] Then what about the molecule CC[C@H]1OC(=O)[C@H](C)[C@@H](O[C@H]2C[C@@](C)(OC)[C@@H](O)[C@H](C)O2)[C@H](C)[C@@H](O[C@@H]2O[C@H](C)C[C@H](N(C)C)[C@H]2O)[C@](C)(O)C[C@@H](C)CN(C)[C@H](C)[C@@H](O)[C@]1(C)O ?
[A] 0.5^# mg/L

[Q] How about C[C@H]1[C@H](NC(=O)/C(=N\OC(C)(C)C(=O)O)c2csc(N)n2)C(=O)N1S(=O)(=O)O ?
[A] 0.32 mg/L

[Q] Please give the result for CC(=O)NC[C@H]1CN(c2ccc(N3CCOCC3)c(F)c2)C(=O)O1 too.
[A] 64^# mg/L
